molecular target: human Nav1.7 (Homo sapiens (Human)); assay: FLIPR sodium dye assay for sodium channel blocking activity; conditions: recombinant Nav1.7/HEK293 cells
pIC50: −log10 of the molar value.
readout-kind: pIC50

Example results:
Cc1cc(C(=O)NCc2ccc([N+](C)(C)C)cc2)cc(-c2ccc(Oc3ccc(F)cc3)cc2)n1 :: 5.40
Cc1cc(C(=O)NCC[N+](C)(C)C)cc(-c2ccc(Oc3ccc(F)cc3)cc2)n1 :: 5.19
Cc1cc(C(=O)NCC[N+]2(C)CCCC2)cc(-c2ccc(Oc3ccc(F)cc3)cc2)n1 :: 5.54

A = Cc1cc(C(=O)NCC[N+]2(C)CCOCC2)cc(-c2ccc(Oc3ccc(F)cc3)cc2)n1
B = Cc1cc(C(=O)NCC[N+]2(C)CCCCC2)cc(-c2ccc(Oc3ccc(F)cc3)cc2)n1
Exercise: // max by pIC50 over [ A , B ] Write the label of whichever entry you select.
Key: B
(B: 6.06, A: 5.73)

====

target: hNav1.7 (Homo sapiens (Human), UniProt Q15858); assay: Electrophysiology (EP) assay, whole-cell patch clamp; assay type: cell-based; conditions: affinity for the inactivated state of the channel; hNav1.7 HEK-293 cells; read-out: Nav1.7 Activity EP assay Ki
Sequence (Q15858 other isoform, or with tags, fused parts or gaps): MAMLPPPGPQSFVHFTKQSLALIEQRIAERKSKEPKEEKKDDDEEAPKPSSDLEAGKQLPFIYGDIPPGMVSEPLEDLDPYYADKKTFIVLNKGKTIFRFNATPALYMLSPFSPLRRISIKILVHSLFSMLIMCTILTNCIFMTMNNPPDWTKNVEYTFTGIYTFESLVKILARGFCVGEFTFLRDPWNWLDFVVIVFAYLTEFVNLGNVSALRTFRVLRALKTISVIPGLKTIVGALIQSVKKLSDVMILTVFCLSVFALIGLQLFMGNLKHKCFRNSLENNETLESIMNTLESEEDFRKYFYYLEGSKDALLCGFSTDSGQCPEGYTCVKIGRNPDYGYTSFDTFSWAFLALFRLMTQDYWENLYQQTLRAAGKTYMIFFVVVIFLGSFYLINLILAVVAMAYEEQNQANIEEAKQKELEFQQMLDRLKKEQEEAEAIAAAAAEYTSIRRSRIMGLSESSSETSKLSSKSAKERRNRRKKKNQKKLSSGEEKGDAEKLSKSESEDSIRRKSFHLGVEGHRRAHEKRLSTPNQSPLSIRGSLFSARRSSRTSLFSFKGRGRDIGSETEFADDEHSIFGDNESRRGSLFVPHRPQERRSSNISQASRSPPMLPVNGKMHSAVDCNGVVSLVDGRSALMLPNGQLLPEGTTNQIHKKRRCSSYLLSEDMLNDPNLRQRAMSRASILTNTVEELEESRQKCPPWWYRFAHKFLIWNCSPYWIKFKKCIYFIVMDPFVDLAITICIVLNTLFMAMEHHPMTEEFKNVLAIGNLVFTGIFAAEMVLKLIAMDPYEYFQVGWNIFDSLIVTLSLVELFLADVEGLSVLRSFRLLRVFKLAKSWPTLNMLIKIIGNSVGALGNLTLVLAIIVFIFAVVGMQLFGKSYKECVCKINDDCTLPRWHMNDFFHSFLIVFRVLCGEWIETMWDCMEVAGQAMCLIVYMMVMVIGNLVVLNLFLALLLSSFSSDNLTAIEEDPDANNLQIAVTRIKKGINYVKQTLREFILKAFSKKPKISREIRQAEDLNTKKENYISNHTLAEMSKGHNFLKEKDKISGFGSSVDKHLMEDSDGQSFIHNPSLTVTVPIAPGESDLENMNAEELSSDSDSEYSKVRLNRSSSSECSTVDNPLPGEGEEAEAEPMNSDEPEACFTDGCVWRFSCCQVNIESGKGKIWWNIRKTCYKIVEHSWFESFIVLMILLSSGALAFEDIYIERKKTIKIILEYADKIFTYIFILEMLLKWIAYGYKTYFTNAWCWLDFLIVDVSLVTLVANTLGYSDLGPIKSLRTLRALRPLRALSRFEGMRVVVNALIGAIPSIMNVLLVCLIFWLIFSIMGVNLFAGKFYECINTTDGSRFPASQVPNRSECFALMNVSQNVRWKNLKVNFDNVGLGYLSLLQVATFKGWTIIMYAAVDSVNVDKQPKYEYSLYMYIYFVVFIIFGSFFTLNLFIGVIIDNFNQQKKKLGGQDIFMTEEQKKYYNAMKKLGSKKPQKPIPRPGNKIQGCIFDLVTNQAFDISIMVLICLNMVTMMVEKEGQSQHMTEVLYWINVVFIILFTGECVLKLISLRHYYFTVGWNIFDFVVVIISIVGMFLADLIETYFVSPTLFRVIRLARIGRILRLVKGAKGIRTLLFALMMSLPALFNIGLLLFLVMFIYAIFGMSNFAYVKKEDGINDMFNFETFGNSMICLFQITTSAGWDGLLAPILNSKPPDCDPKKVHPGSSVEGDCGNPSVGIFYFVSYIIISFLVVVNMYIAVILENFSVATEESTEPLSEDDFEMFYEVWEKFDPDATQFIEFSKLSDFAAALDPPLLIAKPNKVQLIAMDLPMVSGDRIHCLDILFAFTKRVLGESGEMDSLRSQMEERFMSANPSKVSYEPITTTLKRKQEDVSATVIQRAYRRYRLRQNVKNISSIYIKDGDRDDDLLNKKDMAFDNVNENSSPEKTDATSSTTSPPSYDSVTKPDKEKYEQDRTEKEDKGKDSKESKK
readout-kind: Ki (µM)
API: value field is a number in µM; no unit string.

In plain terms, `Cc1cc(C(=O)NCC[N+]2(C)CCCCC2)cc(-c2ccc(Oc3ccc(F)cc3)cc2)n1` has a documented Ki of 6.03

====

target: human Nav1.7 (Homo sapiens (Human), UniProt Q15858); assay: FLIPR sodium dye assay for sodium channel blocking activity; settings: recombinant Nav1.7/HEK293 cells
Sequence (Q15858 other isoform, or with tags, fused parts or gaps): as above
readout-kind: IC50

Solved entries (count: 2):
Cc1cc(C(=O)N2CC[N+](C)(C)CC2)cc(-c2ccc(Oc3ccc(F)cc3)cc2)n1 :: > 20 µM
Cc1cc(C(=O)N(C)C2CC[N+](C)(C)CC2)cc(-c2ccc(Oc3ccc(F)cc3)cc2)n1 :: > 20 µM

Now for the molecule whose IC50 we want.
// IC50 value for `Cc1cc(C(=O)N2CCC([N+]3(C)CCCC3)CC2)cc(-c2ccc(Oc3ccc(F)cc3)cc2)n1` : > 20 µM
